Assay: Dissociation constant was determined
Assay type: physicochemical
Reported endpoint: pKa
Lab note: jot down the number only; don't add units.

>>> value_reported("Oc1ccc2c(c1)CNCC2")
10
>>> value_reported("Oc1ccc2c3c(ccc2c1)CCNC3")
10
>>> value_reported("CS(=O)(=O)Nc1ccc2c(c1)CNCC2")
9
>>> value_reported("O=S(=O)(Nc1ccc(Cl)cc1)c1ccc2c(c1)CNCC2")
7.8
>>> value_reported("CS(=O)(=O)NCc1ccc2c(c1)CNCC2")
11.9
>>> value_reported("CNS(=O)(=O)c1ccc2c(c1)CNCC2")
11.4
>>> value_reported("NS(=O)(=O)c1ccc2c(c1)CNCC2")
10

Turning now to a further molecule:
What value of measured pKa is listed for NCc1cccc2cc(O)ccc12 ?
10
